# PROTOCOL_SUMMARY: decreased DLD-1 cellular survival, CellTiter-Glo luminescent readout, NPC compound collection, primary HTS (AID 1117346)
# TEST_SETTINGS: DLD-1 viability, CellTiter-Glo luminescence; at 20 µM (top of the series)
Active and inactive are the calls of the source.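 How the source made its calls: active means compounds that lower survival of DLD-1 colon cancer cells in the luminescence readout, no cutoff given; inactive means the rest.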
Use one of these outcomes when replying: active, inactive

Field: example entries. Status: answers known.
COMPOUND | CLASSIFICATION
O=C(O)c1cccnc1 | inactive
CCCOC(=O)c1cc(O)c(O)c(O)c1 | active
c1ccc(OCc2ccc(CCCN3CCOCC3)cc2)cc1 | inactive
O=C(OC1C[C@@H]2CC3C[C@@H](C1)N2CC3=O)c1c[nH]c2ccccc12 (stereo not given in full) | inactive
O=C(CN1CCNCC1)NC1CCCCC1 | active
CCN(CC)C(=S)SSC(=S)N(CC)CC | inactive

**Q:** State the result this test recorded for Cc1nc([N+](=O)[O-])cn1-c1ccc([N+](=O)[O-])cc1 .
**A:** inactive

**Q:** For this compound, state the assay outcome: Nc1ncn([C@@H]2O[C@H](CO)[C@@H](O)[C@H]2O)c(=O)n1
**A:** active

**Q:** What outcome does the record of this test show for NNC(=O)CP(=O)(c1ccccc1)c1ccccc1 ?
**A:** inactive

###

# TEST_TARGET: Cellular tumor antigen p53 (Homo sapiens) (UniProt P04637)
# Sequence (P04637 whole entry, looked up): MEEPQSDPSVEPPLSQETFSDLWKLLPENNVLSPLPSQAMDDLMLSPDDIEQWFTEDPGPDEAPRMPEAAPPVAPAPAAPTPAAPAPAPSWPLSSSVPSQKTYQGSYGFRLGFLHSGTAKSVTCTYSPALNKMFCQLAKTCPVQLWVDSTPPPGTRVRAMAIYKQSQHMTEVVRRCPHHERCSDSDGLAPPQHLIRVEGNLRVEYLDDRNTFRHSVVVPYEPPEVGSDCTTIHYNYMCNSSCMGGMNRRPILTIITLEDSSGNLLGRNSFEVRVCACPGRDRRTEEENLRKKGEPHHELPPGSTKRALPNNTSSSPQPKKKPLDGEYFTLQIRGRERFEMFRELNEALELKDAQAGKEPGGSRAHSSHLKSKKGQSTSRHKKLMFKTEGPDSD
# PROTOCOL_SUMMARY: kinase inhibitors altering GFP-p53 stability in HPV16-positive cells, imaging, known kinase inhibitor set, EGFP/DsRed ratio (AID 1053116);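 further: cells exposed to compounds for 24 h at 37 °C before reading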
# TEST_SETTINGS: stronger effect = higher value; measured here: GFP-p53 positive objects count
For each record, write down the corresponding EGFP object count.
Give bare numbers.

Hello, I would appreciate it if you could give EGFP object count for each entry below.
1. O=C1NC(=O)C(c2ccc(Cl)cc2)=C1Nc1ccc(Cl)c(C(=O)O)c1
2. NC(=O)c1sc(-n2cnc3cc(C(F)(F)F)ccc32)cc1OCc1ccccc1Br
3. Fc1ccc(-c2ncn(CCCN3CCOCC3)c2-c2ccncc2)cc1
4. COc1ccc2c(-c3ccnc(Nc4cccc(OC(F)(F)F)c4)n3)cnn2n1
5. Fc1ccc(-c2cc(C3CNNC3c3ccccn3)ccn2)cc1 (configuration not stated)
6. Cn1c(=O)c(Sc2ccccc2F)cc2cnc(NC3CCOCC3)nc21
7. CCN(CC)S(=O)(=O)c1ccc(OC)c(Nc2ncc(-c3ccccc3)o2)c1
8. Cn1cc(C2=C(c3cn(CCCN=C(N)N)c4ccccc34)C(=O)NC2=O)c2ccccc21

**A:**
1. 4
2. 10.5
3. 4
4. 5.5
5. 3
6. 2
7. 3
8. 7.5

Okay, here is my list. What is EGFP object count for each of these?
1. COc1cccc(-n2cnc3c(N/N=C/c4ccncc4)ncnc32)c1
2. O=C1NC(=O)C(c2cccc(Cl)c2)=C1Nc1ccc(Cl)c(C(=O)O)c1

**A:**
1.5
2.5

###

# PROTOCOL_SUMMARY: fluorescence interference in NS3h assay format, artefact control for HCV NS3 helicase inhibitor project, biochemical, NIH Clinical Collection (AID 743272);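 further: HCV NS3 helicase with a Cy5 labelled single stranded DNA probe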
# TEST_SETTINGS: fluorescence interference counterscreen, stronger effect = lower value
# note: exactly 1 is not below, so it is N; use Y for fluorescence ratio strictly under it

Example entries begin here.
MOLECULE | CLASSIFICATION
CC(COc1ccccc1)N(CCCl)Cc1ccccc1 (stereo unspecified) | Y
CN=C(NC#N)NCCSCc1nc[nH]c1C | Y
CN(C)CCOC(c1ccc(Cl)cc1)c1ccccn1 (stereo unspecified) | N

**Q:** Strictly below 1 in fluorescence ratio? CS(=O)(=O)OCCCCOS(C)(=O)=O
**A:** Y

**Q:** Hi there! Is fluorescence ratio for Cc1c(OCC(F)(F)F)ccnc1CS(=O)c1nc2ccccc2[nH]1 (stereo unspecified) below 1, do you know?
**A:** Y
